test system: transformed human keratinocyte cell line (FEP 1811); assay: Clonogenic survival cell culture assay for radioprotective activity (12 Gy 137Cs gamma irradiation); assay type: cell-based; conditions: 12 Gy; DMF=Dp/Dc at survival level Sm
Exercise: for every item that follows, state its recorded DMFm (dose modification factor at maximum protection).
Please reply with the value in numeric form only.

The reported value for Cc1cccc(-c2nc3ccc(-c4nc5ccc(N6CCN(C)CC6)cc5[nH]4)cc3[nH]2)n1 [Example 5] in terms of DMFm (dose modification factor at maximum protection) is 1.22

Short answer for c1ccc(-c2nc3ccc(-c4nc5ccc(N6CCOCC6)cc5[nH]4)cc3[nH]2)nc1 [Example 19] : DMFm (dose modification factor at maximum protection) was 2.26

Record summary for CN1CCN(c2ccc3[nH]c(-c4ccc5[nH]c(-c6ccc7ccccc7n6)nc5c4)nc3c2)CC1 [Example 13] : reported DMFm (dose modification factor at maximum protection) = 1.66

Entry CN1CCN(c2ccc3nc(-c4ccc5nc(-c6cc(Cl)ccn6)[nH]c5c4)[nH]c3c2)CC1 [Example 8] — recorded DMFm (dose modification factor at maximum protection) = 2.20

Value of measured DMFm (dose modification factor at maximum protection) for the entry CN(C)C1CCN(c2ccc3nc(-c4ccc5nc(-c6ccccn6)[nH]c5c4)[nH]c3c2)CC1 [Example 29] : 1.76

DMFm (dose modification factor at maximum protection) reading for CN1CCN(c2ccc3nc(-c4ccc5nc(-c6cc(C(F)(F)F)ccn6)[nH]c5c4)[nH]c3c2)CC1 [Example 48] : 2.75

// sample CN1CCN(c2ccc3nc(-c4ccc5nc(-c6ccc(C(F)(F)F)cn6)[nH]c5c4)[nH]c3c2)CC1 [Example 49] , its DMFm (dose modification factor at maximum protection) was 2.38

// CN(C)c1ccc2nc(-c3ccc4nc(-c5ccccn5)[nH]c4c3)[nH]c2c1 [Example 28] : DMFm (dose modification factor at maximum protection) value = 1.57

// sample Cc1ccnc(-c2nc3ccc(-c4nc5ccc(N6CCC(O)CC6)cc5[nH]4)cc3[nH]2)c1 [Example 50] , its DMFm (dose modification factor at maximum protection) was 1.79

DMFm (dose modification factor at maximum protection) for Cc1ccnc(-c2nc3ccc(-c4nc5ccc(N6CCOCC6)cc5[nH]4)cc3[nH]2)c1 [Example 21] is 1.77

Briefly, DMFm (dose modification factor at maximum protection) measured for c1ccc(-c2nc3ccc(-c4nc5ccc(N6CCSCC6)cc5[nH]4)cc3[nH]2)nc1 [Example 36] : 1.53

Reported DMFm (dose modification factor at maximum protection) ( CN(CCO)c1ccc2[nH]c(-c3ccc4[nH]c(-c5ccccn5)nc4c3)nc2c1 [Example 54] ) = 1.87

According to the records, this molecule CNc1ccnc(-c2nc3ccc(-c4nc5ccc(N6CCN(C)CC6)cc5[nH]4)cc3[nH]2)c1 [Example 9] displays DMFm (dose modification factor at maximum protection) of 1.55

Looking up CN(C)CCNc1ccc2[nH]c(-c3ccc4[nH]c(-c5ccccn5)nc4c3)nc2c1 [Example 43] , I see its DMFm (dose modification factor at maximum protection) listed as 1.61

The molecule listed as COCCOCCNc1ccc2nc(-c3ccc4nc(-c5ccccn5)[nH]c4c3)[nH]c2c1 [Example 39] shows DMFm (dose modification factor at maximum protection) equal to 2.70

CN1CCN(c2ccc3nc(-c4ccc5nc(-c6n[nH]c7ccccc67)[nH]c5c4)[nH]c3c2)CC1 [Example 16] yielded DMFm (dose modification factor at maximum protection) of 2.16

* * *

system: transformed human keratinocyte cell line (FEP 1811); assay: Clonogenic survival cell culture assay for radioprotective activity (12 Gy 137Cs gamma irradiation); format: cell-based; conditions: 12 Gy; survival at maximum protection vs irradiation only
RESULT TYPE: PF (protection factor = Sm/So)
Respond using a number only.

// sample CN(CCO)c1ccc2[nH]c(-c3ccc4[nH]c(-c5ccccn5)nc4c3)nc2c1 [Example 54] , its PF (protection factor = Sm/So) was 20.2

So, c1ccc(-c2nc3ccc(-c4nc5ccc(N6CCCCC6)cc5[nH]4)cc3[nH]2)nc1 [Example 24] ? Its PF (protection factor = Sm/So) was 7.5

Per the record, CN1CCN(c2ccc3nc(-c4ccc5nc(-c6ncccc6F)[nH]c5c4)[nH]c3c2)CC1 [Example 3] has PF (protection factor = Sm/So) of 15.3

Reported PF (protection factor = Sm/So) for COCCNc1ccc2[nH]c(-c3ccc4nc(-c5ccccn5)[nH]c4c3)nc2c1 [Example 35] was 21.9

Lab note: CN1CCN(c2ccc3nc(-c4ccc5nc(-c6cc7ccccc7cn6)[nH]c5c4)[nH]c3c2)CC1 [Example 14] gave PF (protection factor = Sm/So) of 25.1

The molecule identified as c1ccc(-c2nc3ccc(-c4nc5ccc(N6CCSCC6)cc5[nH]4)cc3[nH]2)nc1 [Example 36] registered its PF (protection factor = Sm/So) at 16.4

Please fill in: PF (protection factor = Sm/So) reported for Cc1cccc(-c2nc3ccc(-c4nc5ccc(N6CCN(C)CC6)cc5[nH]4)cc3[nH]2)n1 [Example 5] = 2.5

The molecule listed as CCCCN1CCN(c2ccc3nc(-c4ccc5nc(-c6ccccn6)[nH]c5c4)[nH]c3c2)CC1 [Example 34] has a reported PF (protection factor = Sm/So) of 27.6

response.value for CN1CCN(c2ccc3nc(-c4ccc5cc(-c6ccccn6)[nH]c5c4)[nH]c3c2)CC1 [Example 31] (field: PF (protection factor = Sm/So)) = 22.8

Item: CN(C)c1ccc2nc(-c3ccc4nc(-c5ccccn5)[nH]c4c3)[nH]c2c1 [Example 28] | PF (protection factor = Sm/So): 13.5

* * *

test system: transformed human keratinocyte cell line (FEP 1811); assay: Clonogenic survival cell culture assay for radioprotective activity (12 Gy 137Cs gamma irradiation); format: cell-based; details: 12 Gy; DMF=Dp/Dc at survival level Sm
Consider the following molecules; for each one, report its DMFm (dose modification factor at maximum protection).
// no unit string in output, number only

I looked up Cc1ccnc(-c2nc3ccc(-c4nc5ccc(N6CCN(C)CC6)cc5[nH]4)cc3[nH]2)c1 and its DMFm (dose modification factor at maximum protection) for transformed human keratinocyte cell line (FEP 1811) was 2.55

Measured DMFm (dose modification factor at maximum protection) (transformed human keratinocyte cell line (FEP 1811)), entry CN1CCCN(c2ccc3nc(-c4ccc5nc(-c6ccccn6)[nH]c5c4)[nH]c3c2)CC1 : 2.14

The reported DMFm (dose modification factor at maximum protection) value, transformed human keratinocyte cell line (FEP 1811), for CN1CCN(c2ccc3nc(-c4ccc5nc(-c6ccc[nH]c6=O)[nH]c5c4)[nH]c3c2)CC1 reads 1.01

Log: transformed human keratinocyte cell line (FEP 1811), molecule OC1CCN(c2ccc3nc(-c4ccc5nc(-c6ccccn6)[nH]c5c4)[nH]c3c2)CC1 , DMFm (dose modification factor at maximum protection) = 2.20

Record for CN(C)C(=O)N1CCN(c2ccc3[nH]c(-c4ccc5[nH]c(-c6ccccn6)nc5c4)nc3c2)CC1 under target or system transformed human keratinocyte cell line (FEP 1811): DMFm (dose modification factor at maximum protection) reported as 1.82

Result for CN1CCN(c2ccc3nc(-c4ccc5nc(-c6nccc7ccccc67)[nH]c5c4)[nH]c3c2)CC1 , tested on transformed human keratinocyte cell line (FEP 1811), DMFm (dose modification factor at maximum protection): 1.85

I looked up OC1CCN(c2ccc3nc(-c4ccc5nc(-c6cc7ccccc7cn6)[nH]c5c4)[nH]c3c2)CC1 and its DMFm (dose modification factor at maximum protection) for transformed human keratinocyte cell line (FEP 1811) was 2.26

With transformed human keratinocyte cell line (FEP 1811) as the test system, c1ccc2cc(-c3nc4ccc(-c5nc6ccc(N7CCOCC7)cc6[nH]5)cc4[nH]3)ncc2c1 showed DMFm (dose modification factor at maximum protection) of 1.57

Hey, transformed human keratinocyte cell line (FEP 1811) data for Cc1ccc(-c2nc3ccc(-c4nc5ccc(N6CCN(C)CC6)cc5[nH]4)cc3[nH]2)nc1 : DMFm (dose modification factor at maximum protection) came out at 2.52

Value (DMFm (dose modification factor at maximum protection), transformed human keratinocyte cell line (FEP 1811)) for record CN1CCN(c2ccc3nc(-c4ccc5nc(-c6ncccc6F)[nH]c5c4)[nH]c3c2)CC1 = 1.80

Lab entry: transformed human keratinocyte cell line (FEP 1811) assay, molecule CN1CCN(c2ccc3nc(-c4ccc5nc(-c6cnccn6)[nH]c5c4)[nH]c3c2)CC1 , DMFm (dose modification factor at maximum protection) = 1.29

DMFm (dose modification factor at maximum protection) for transformed human keratinocyte cell line (FEP 1811) with input CN1CCN(c2ccc3nc(-c4ccc5cc(-c6ccccn6)[nH]c5c4)[nH]c3c2)CC1 equals 2.20

Log: transformed human keratinocyte cell line (FEP 1811), molecule CN1CCN(c2ccc3nc(-c4ccc5nc(-c6ccco6)[nH]c5c4)[nH]c3c2)CC1 , DMFm (dose modification factor at maximum protection) = 1.37

Lab entry: transformed human keratinocyte cell line (FEP 1811) assay, molecule COCCN(C)c1ccc2[nH]c(-c3ccc4[nH]c(-c5ccccn5)nc4c3)nc2c1 , DMFm (dose modification factor at maximum protection) = 1.55

The molecule CN1CCN(c2ccc3nc(-c4ccc5nc(-c6cc(N(C)C)ccn6)[nH]c5c4)[nH]c3c2)CC1 on transformed human keratinocyte cell line (FEP 1811): DMFm (dose modification factor at maximum protection) was 1.51

# lookup: COCCNc1ccc2[nH]c(-c3ccc4nc(-c5ccccn5)[nH]c4c3)nc2c1 on transformed human keratinocyte cell line (FEP 1811), DMFm (dose modification factor at maximum protection) = 2.19

Sample CN1CCN(c2ccc3[nH]c(-c4ccc5[nH]c(-c6nn(C)c7ccccc67)nc5c4)nc3c2)CC1 , system: transformed human keratinocyte cell line (FEP 1811). Its DMFm (dose modification factor at maximum protection) is 1.68

Value source: patent USRE46943E1
